System: SNB-75
Experiment Notes: NCI tumour cell line growth inhibition, 48 h
Active and inactive are the calls of the source. Rule as the data show it: active = GI50 up to about 1.1 µM and inactive = higher.

- Compound: "NC(=S)SC1=NC(=O)C2(NN1)c1ccccc1-c1ccccc12"
  GI50: "> 10 µM (inactive)"
- Compound: "COc1cc(N(CCC#N)CCC#N)ccc1C(=N/NC(=O)c1cc(Br)ccc1O)/N=N/c1ccccc1"
  GI50: "27.7 µM (inactive)"
- Compound: "FC(F)(F)c1cccc2ns[s+]c12"
  GI50: "> 100 µM (inactive)"
- Compound: "O=c1c2sc(=S)n(-c3ccc(F)cc3)c2ncn1/N=C/c1ccc(F)cc1F"
  GI50: "16 µM (inactive)"
- Compound: "Cc1cc(C)nc(NC(=S)Nc2ccc([N+](=O)[O-])cc2)c1"
  GI50: "> 100 µM (inactive)"
- Compound: "CC(=N/NC(=S)N1CCCCCC1)/C(C)=N\\NC(=S)N1CCCCCC1"
  GI50: "5.09 µM (inactive)"
- Compound: "OC[C@H]1O[C@@H](n2cnc3c(S)ncnc32)[C@H](O)[C@@H]1O"
  GI50: "> 2120 µM (inactive)"
- Compound: "O=C(c1ccncc1)n1nc(-c2ccccc2)c(/N=N/c2ccc([N+](=O)[O-])cc2)c1-c1ccccc1"
  GI50: "12.6 µM (inactive)"
- Compound: "CC1CCC(=O)NCCCCC(=O)N1 (stereo not given)"
  GI50: "43.3 µM (inactive)"
- Compound: "CCOP(=O)(OCC)Oc1c(OC)c2[nH]c(C(=O)OC)cc2c2c(C(=O)O)c[nH]c12"
  GI50: "> 100 µM (inactive)"

---

System: T47D
Experiment Notes: NCI tumour cell line growth inhibition, 48 h
The source made the active and inactive calls. Cut-off read from the data, not from the text of the source: active = GI50 up to about 1.1 µM and inactive = higher.
Labels: active, inactive

- Compound: "CN(C)CCN(C)P12(Oc3ccccc3O1)Oc1c(Cl)c(Cl)c(Cl)c(Cl)c1O2"
  Class Name: "inactive"
- Compound: "Clc1cccc(-c2sc(-c3cccs3)cc2Cc2cccs2)c1"
  Class Name: "active"
- Compound: "O=C(CN1CCOCC1)CC(O)(C(F)(F)F)C(F)(F)F"
  Class Name: "inactive"
- Compound: "C1=CC(=[N+]2N=C(c3ccccc3)CC2c2ccccc2)C=CC1=C1SC(c2ccccc2)(c2ccccc2)c2ccccc21.[O-][Cl+3]([O-])([O-])[O-] (centres undefined)"
  Class Name: "inactive"
- Compound: "[N-]=[N+]=CC(=O)OC1Cc2ccccc2C1"
  Class Name: "inactive"
- Compound: "Nc1n[n+]([O-])c2ccc(Cl)cc2[n+]1[O-]"
  Class Name: "inactive"
- Compound: "CCOP(=O)(OCC)C(c1ccc(F)cc1)N(C(=O)NC(F)(F)F)c1cccc(C(F)(F)F)c1 (centres undefined)"
  Class Name: "inactive"
- Compound: "COc1ccccc1N1C(=O)CC(=O)N(C(=O)CCCCCCCCC(=O)N2C(=O)CC(=O)N(c3ccccc3OC)C2=S)C1=S"
  Class Name: "inactive"
- Compound: "O=C(c1ccccc1)c1c(C(F)(F)F)[n+]([O-])c2cc(F)c(F)cc2[n+]1[O-]"
  Class Name: "inactive"

---

Test system: SK-OV-3
Experiment Notes: NCI tumour cell line growth inhibition, 48 h
The source made the active and inactive calls. Cut-off read from the data, not from the text of the source: active = GI50 up to about 1.1 µM and inactive = higher.
In this section, each of the compounds is paired with its reported GI50.
Value Type: GI50

- Compound: "COc1cc(OC)c(/C=C/c2cnc3ccccc3n2)c(OC)c1"
  Endpoint Value: "> 10 µM (inactive)"
- Compound: "O=C(CN1CCOCC1)CC(O)(C(F)(F)F)C(F)(F)F"
  Endpoint Value: "> 100 µM (inactive)"
- Compound: "C[Si](C)(C)/C=C/CN1C(=O)CCC1O (stereo not drawn)"
  Endpoint Value: "> 100 µM (inactive)"
- Compound: "COC(=O)C1=CO[C@@H](OC2OC(CO)C(O)C(O)C2O)[C@H]2[C@@H](C)[C@@H](O)[C@@H](O)[C@@H]12 (stereo partly drawn)"
  Endpoint Value: "> 100 µM (inactive)"
- Compound: "C/C1=C\\CC[C@@]2(C)O[C@@H]2C[C@@H]2[C@H](C/C(C)=C/CC1)OC(=O)C21CCN=N1 (stereo partly drawn)"
  Endpoint Value: "> 75 µM (inactive)"
- Compound: "CCOC(=O)/C=C(/C(=O)OCC)n1cc(C)c(=O)n(Cc2cnnn2CCCCOC(C)=O)c1=O"
  Endpoint Value: "> 100 µM (inactive)"
- Compound: "COC(=O)C1=C(OC(=O)/C(=C/c2ccccc2)c2ccc([N+](=O)[O-])cc2)C(C(=O)OC)[C@@]2(O)[C@@H](C(=O)OC)[C@H](C)C[C@@H]1[C@@H]2C(=O)OC (stereo partly drawn)"
  Endpoint Value: "> 100 µM (inactive)"
- Compound: "O=C(N/C(=C\\c1c(O)ccc2ccccc12)c1nc2ccccc2[nH]1)c1ccccc1"
  Endpoint Value: "86.3 µM (inactive)"
